- experimental.system: CDK2/Cyclin A2 (Homo sapiens) (UniProt P24941+P20248)
- assay.protocol: Inhibition of CDK2/CyclinA (unknown origin) using ULingt-4E-BP as substrate at 25 nM after 1 hr in presence of ATP by fluorescence assay relative to control
- Assay type: protein-complex assay
Would you mind telling me the reported inhibition of each entry?

Item Cc1cccc(C(=O)N[C@H]2C[C@@H](n3cnc4c(NCc5ccccn5)ncnc43)C2)n1 : provide inhibition 49%

Item Cc1cccc(C(=O)N[C@H]2C[C@@H](n3cnc4c(NCc5cccc(C(F)(F)F)c5)ncnc43)C2)n1 : provide inhibition < 50%

Item Cc1cccc(C(=O)N[C@H]2C[C@@H](n3cnc4c(NCc5ccccc5Cl)ncnc43)C2)n1 : provide inhibition < 50%

Item Cc1ccc(C(=O)N[C@H]2C[C@@H](n3cnc4c(NCc5cccnc5)ncnc43)C2)cc1C : provide inhibition < 50%

Item O=C(N[C@H]1C[C@@H](n2cnc3c(NCc4cccnc4)ncnc32)C1)c1cnccn1 : provide inhibition < 50%

Item COc1ccc(Nc2ncnc3c2ncn3[C@H]2C[C@@H](NC(=O)c3cccc(C)n3)C2)cc1 : provide inhibition < 50%

Item Cc1cccc(C(=O)N[C@H]2C[C@@H](n3cnc4c(NCc5ccc(C(F)(F)F)cc5)ncnc43)C2)n1 : provide inhibition < 50%

Item CS(=O)(=O)N1CCC(C(=O)N[C@H]2C[C@@H](n3cnc4c(NCc5cccnc5)ncnc43)C2)CC1 : provide inhibition 62%

Item O=C(N[C@H]1C[C@@H](n2cnc3c(NCc4cccnc4)ncnc32)C1)c1ccncc1 : provide inhibition < 50%

Item Cc1cccc(C(=O)N[C@H]2C[C@@H](n3cnc4c(NCc5ccccc5F)ncnc43)C2)n1 : provide inhibition < 50%

Item O=C(N[C@H]1C[C@@H](n2cnc3c(NCc4cccnc4)ncnc32)C1)c1ccccc1 : provide inhibition < 50%

Item O=C(N[C@H]1C[C@@H](n2cnc3c(NCc4cccnc4)ncnc32)C1)c1c(F)cccc1F : provide inhibition 78%

Item O=C(N[C@H]1C[C@@H](n2cnc3c(NCc4cccnc4)ncnc32)C1)c1cccc(Cl)c1Cl : provide inhibition < 50%

Item Cc1cccc(C(=O)N[C@H]2C[C@@H](n3cnc4c(NCc5ccc(Br)cc5)ncnc43)C2)n1 : provide inhibition 64%

Item Cc1cccc(C(=O)N[C@H]2C[C@@H](n3cnc4c(NCc5ccc(OC(F)(F)F)cc5)ncnc43)C2)n1 : provide inhibition < 50%

Item COc1ccccc1CNc1ncnc2c1ncn2[C@H]1C[C@@H](NC(=O)c2cccc(C)n2)C1 : provide inhibition < 50%

Item Cc1cccc(C(=O)N[C@H]2C[C@@H](n3cnc4c(NCc5ccc(C#N)cc5)ncnc43)C2)n1 : provide inhibition < 50%

Item Cc1cccc(C(=O)N[C@H]2C[C@@H](n3cnc4c(NC5CCN(S(C)(=O)=O)CC5)ncnc43)C2)n1 : provide inhibition 62%

Item CN1CCCC1C(=O)N[C@H]1C[C@@H](n2cnc3c(NCc4cccnc4)ncnc32)C1 (some centres undefined) : provide inhibition < 50%

Item COc1ccc(CNc2ncnc3c2ncn3[C@H]2C[C@@H](NC(=O)c3cccc(C)n3)C2)cc1 : provide inhibition 57%

Item Cc1cccc(C(=O)N[C@H]2C[C@@H](n3cnc4c(NCc5ccc(N(C)C)cc5)ncnc43)C2)n1 : provide inhibition < 50%

Item Cc1cccc(C(=O)N[C@H]2C[C@@H](n3cnc4c(NCc5ccc(Oc6ccccc6)cc5)ncnc43)C2)n1 : provide inhibition < 50%

Item Cc1cccc(C(=O)N[C@H]2C[C@@H](n3cnc4c(NCc5ccccc5C)ncnc43)C2)n1 : provide inhibition < 50%

Item O=C(N[C@H]1C[C@@H](n2cnc3c(NCc4cccnc4)ncnc32)C1)C1CCOCC1 : provide inhibition < 50%
